protocol.text: physchem
Assay type: physicochemical
assay.setup: water
experimental.readout: solubility

{"smiles.input": "Nc1c(Br)cc(Br)cc1CN[C@H]1CC[C@H](O)CC1", "reading": "≤ 10000 µg/mL"}
